B1: LINE1-full (parent)
chain: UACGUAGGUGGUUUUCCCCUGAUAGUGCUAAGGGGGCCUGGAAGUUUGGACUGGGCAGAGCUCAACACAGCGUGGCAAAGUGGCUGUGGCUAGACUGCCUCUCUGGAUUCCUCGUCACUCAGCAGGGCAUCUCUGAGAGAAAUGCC

# Variants of: B1
# assay.explanation: self-cleavage, relative activity (ratio to wild type); higher = more cleavage; in vitro, sequencing; the parent is a self-cleaving ribozyme
Assign 1 whenever self-cleavage does not fall below 0.3; assign 0 whenever it does.

mutant | group.label
A6G U73A | 1
A59U G126A | 1
A42U C103A | 1
A2G C84A | 0
G55U U134C | 0
U9A G53A | 1
U29A A121G | 1
U5A A31U | 1
A69C A117G | 0
U81C A107G | 1
A31G U143C | 1
U9A U14A | 1
U9A G32A | 1
C99U A107G | 1
A43G A50U | 1
U5C U81C | 1
A50G A69G | 1
G25A U62C | 0
G36C C71G | 0
A6U A69G | 1
U5C C120U | 1
U23C C56A | 0
U39A A124U | 1
G36C C146G | 1
U9C G93A | 0
U26A C90A | 0
G41U A117U | 1
U100A G125A | 1
A43C A78U | 1
U85G A107G | 0
C38G A43G | 1
A64U A129U | 1
G86A U96C | 0
U85A A94U | 0
U12C A141U | 1
U1C A78G | 1
U13C A77U | 1
A31C U45G | 0
G93A A107G | 0
U102A G135A | 1
G25A A77G | 1
C71A A124G | 0
A50U A121G | 1
C71U A141U | 1
U46G G144U | 1
U39C G54A | 1
C3U U73A | 1
A22G C123U | 1
U20A A79U | 1
G8U U143A | 1
A24U G35A | 1
G7U U9C | 1
G54U U62A | 0
A57G C128A | 0
A31G U134C | 1
U73C C103U | 1
C95A U108C | 0
U26G G60C | 0
A78G G122A | 1
C71A G93U | 0
A94C A136G | 0
A59G A107G | 0
C90U U108C | 0
A65G A107G | 0
G34A U46A | 1
U109G C128U | 1
U1C A43U | 1
A42G U130C | 1
U119C C146U | 1
U112C G135A | 1
U39A G93A | 0
G33U U85C | 0
A67G A136U | 1
U20A G41C | 1
A67U A107G | 0
U9C G27A | 1
A78G G126U | 1
U119C A136G | 1
